Source listed as patent US20170051149A1.

# experimentalDetails: UV-Vis absorption spectra of trans and cis isomers (λstrong, εE, λiso)
# Type: physicochemical
# measurementContext: PBS pH = 7.4, 20% MeCN
observationType: εE(λstrong) (M⁻¹ cm⁻¹)

[A] COc1ccc(N=Nc2cc(OC)c(OC)c(OC)c2)cc1F
[B] COc1ccc(N=Nc2cc(OC)c(OC)c(OC)c2)cc1Br
Query string: Select one. Lower εE(λstrong): A or B Please identify the chosen entry by its label.
Result string: A

* * *

# experimentalDetails: UV-Vis absorption spectra of trans and cis isomers (λstrong, εE, λiso)
# Assay type: physicochemical
# measurementContext: PBS pH = 7.4, 20% MeCN
observationType: λstrong (nm)

{"columns": ["compound", "observationType", "recordedResult"],
 "data": [
  ["COc1ccc(N=Nc2cc(OC)c(OC)c(OC)c2)c(NC(C)=O)c1", "λstrong", 380],
  ["COc1ccc(N=Nc2cc(OC)c(OC)c(OC)c2)cc1N", "λstrong", 365],
  ["COc1ccc(N=Nc2cc(F)c(OC)c(F)c2)cc1", "λstrong", 355],
  ["COc1ccc(N=Nc2cc(OC)c(OC)c(OC)c2)c(N)c1", "λstrong", 410],
  ["COc1ccc(N=Nc2cc(OC)c(OC)c(OC)c2)c(F)c1F", "λstrong", 365],
  ["CCN(CC)c1ccc2c(-c3ccccc3C(=O)N3CCN(CCCOc4c(N=Nc5cc(OC)c(OC)c(OC)c5)ccc(OC)c4C)CC3)c3ccc(=[N+](CC)CC)cc-3oc2c1.CCN(CC)c1ccc2c(-c3ccccc3C(=O)N3CCN(CCCOc4c(N=Nc5cc(OC)c(OC)c(OC)c5)ccc(OC)c4C)CC3)c3ccc(=[N+](CC)CC)cc-3oc2c1.O=C[O-].O=C[O-]", "λstrong", 375],
  ["COc1ccc(N=Nc2cc(OC)c(OC)c(OC)c2)cc1OC", "λstrong", 375],
  ["COc1ccc(N=Nc2cc(OC)c(OC)c(OC)c2)c(O)c1C", "λstrong", 385],
  ["COc1ccc(N=Nc2cc(OC)c(OC)c(OC)c2)cc1 [I.6, reference compound]", "λstrong", 365],
  ["COc1ccc(N=Nc2cc(OC)c(OC)c(OC)c2)cc1C(=O)O", "λstrong", 365],
  ["COc1ccc(N=Nc2cc(OC)c(OC)c(OC)c2)c(OC)c1", "λstrong", 380],
  ["COc1ccc(N=Nc2cc(OC)c(OC)c(OC)c2)cc1F", "λstrong", 365],
  ["COc1ccc(N=Nc2cc(OC)c(OC)c(OC)c2)cc1O", "λstrong", 375],
  ["COc1ccc(N=Nc2cc(OC)c(OC)c(OC)c2)cc1Br", "λstrong", 365],
  ["COc1ccc(N=Nc2cc(OC)c(OC)c(OC)c2)c(F)c1", "λstrong", 365],
  ["COc1ccc(N=Nc2cc(OC)c(OC)c(OC)c2)cn1", "λstrong", 355],
  ["COc1ccc(N=Nc2cc(OC)c(OC)c(OC)c2)c(O)c1", "λstrong", 390],
  ["COc1cc(N=Nc2ccc(OC)c3ncccc23)cc(OC)c1OC", "λstrong", 390],
  ["COc1ccc(N=Nc2cc(OC)c(OC)c(OC)c2)cc1C=O", "λstrong", 360],
  ["COc1cc(N=Nc2ccc(OC)c([N+](=O)[O-])c2F)cc(OC)c1OC", "λstrong", 365]
]}
